Values compiled from PubChem BioAssay AID488841.

- Assay Protocol: yeast NALP1 reporter signal suppression – S. cerevisiae, luminescence, single concentration, NALP1 inhibitor project, confirmation (AID 488841)
- Measurement Conditions: S. cerevisiae NALP1/ASC/Caspase-1 reporter, beta-gal luminescence; at 10 µM
Hit rate of the full screen: of about 1,400 compounds, about 380 (27%) were called active.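 The calls were made as follows: active = mean inhibition above 50% across duplicate retests at 10 µM; inactive = the rest.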 The list shows a part of the results.
Response enum: TRUE = active, FALSE = inactive

Asked: For `Cc1[nH][nH]c(=O)c1C(c1c(C)[nH][nH]c1=O)c1cn(Cc2ccc(Cl)c(Cl)c2)c2ccccc12` , which call appears in the assay record?
Given back: FALSE

Asked: Also check `O=C(CON=C1c2ccccc2-c2ccccc21)NC12CC3CC(CC(C3)C1)C2`
Given back: FALSE

Asked: Also check `Cc1c([N+](=O)[O-])c(C(=O)Nc2ccc3c(c2)OCCO3)nn1C`
Given back: FALSE

Asked: Also check `COc1ccc(/C=C2\SC(N3CCc4ccccc4C3)=NC2=O)cc1`
Given back: TRUE

Asked: Also check `Cc1nc2ccc(NC(=O)c3cc([N+](=O)[O-])cc([N+](=O)[O-])c3Cl)cc2s1`
Given back: FALSE

Asked: Also check `CNc1ccc(/C=C/C(=O)c2ccc3c(c2)OCCO3)cc1[N+](=O)[O-]`
Given back: TRUE

Asked: Also check `O=C(O)C1CCN(C(=O)c2csc(-c3ccc4c(c3)CCO4)n2)CC1`
Given back: FALSE

Asked: Also check `Cc1cc(Cl)c(OCCOCCN2CCC(C)CC2)c(Br)c1`
Given back: FALSE

Asked: Also check `CCC(=O)N(Cc1cc2c(C)ccc(C)c2[nH]c1=O)C1CCCCC1`
Given back: FALSE

Asked: Also check `Cn1c(=O)c2c(nc(Sc3ncccn3)n2Cc2ccccc2Cl)n(C)c1=O`
Given back: FALSE

Asked: Also check `CC(=O)c1ccc(NC(=O)/C=C/c2ccc(C)cc2)cc1`
Given back: FALSE

Asked: Also check `O=C(/C=C/c1ccccn1)c1ccc(Br)cc1O`
Given back: TRUE

Asked: Also check `CC(C)c1ccc(NCCC(=O)c2cccs2)cc1`
Given back: FALSE

Asked: Also check `Cc1ccc(S(=O)(=O)N[C@@H](Cc2ccccc2)C(=O)CCl)cc1`
Given back: FALSE

Asked: Also check CCC(C)C(=O)N1c2ccccc2C(=C2SC(C(=O)OC)=C(C(=O)OC)S2)C(=S)C1(C)C (stereo unspecified)
Given back: FALSE

Asked: Also check `Cc1ncc(S(=O)(=O)c2ccccc2)c(-c2ccccc2Cl)n1`
Given back: FALSE

Asked: Also check `CCOc1ccc(NC(=O)c2cc3c(C)nc4ccccc4c3o2)cc1`
Given back: FALSE

Asked: Also check `Clc1ccc(OCCOCCN2CCc3ccccc3C2)c(Cl)c1`
Given back: TRUE

Asked: Also check `COc1ccccc1NC(=O)Nc1ccc2c(c1)nnn2C`
Given back: FALSE

Asked: Also check `Cc1ccc2cc(CN(Cc3ccco3)C(=O)NC3CCCCC3)c(=O)[nH]c2c1C`
Given back: FALSE

Asked: Also check `COc1cc(C)ccc1OCCOCCOc1ccc([N+](=O)[O-])cc1`
Given back: TRUE

Asked: Also check `Cc1ccc(OCc2nc(-c3ccc(Cl)cc3)n[nH]2)cc1`
Given back: TRUE

Asked: Also check CC[N+]1(CC)CC2=Cc3c(ccc4ccccc34)CC2C1 (stereo unspecified)
Given back: FALSE

Asked: Also check `C/C(=N\NC(=O)c1c[nH]c2ccccc12)c1ccco1`
Given back: FALSE

Asked: Also check `C=CCc1cc(Cl)ccc1OCCOCCNCCOC`
Given back: FALSE

Asked: Also check `CSc1ccc(/C=C/C(=O)c2ccc(NC(C)=O)cc2)cc1`
Given back: TRUE

Asked: Also check `CCOc1ccc(NC(=O)c2csc3c2CCCC3)cc1`
Given back: TRUE

Asked: Also check O=C(CN1C(=O)C2C3C=CC(C3)C2C1=O)NCCc1ccccc1 (stereo unspecified)
Given back: FALSE

Asked: Also check `Nc1ccccc1-c1nc2ccccc2[nH]1`
Given back: TRUE

Asked: Also check `CCN(CC)c1ccc(N=Cc2ccc([N+](=O)[O-])o2)cc1`
Given back: TRUE

Asked: Also check `O=C(/C=C/Sc1ccccc1)c1ccc(Cl)cc1`
Given back: FALSE

Asked: Also check `O=C(NCCCc1ccccc1)c1ccccc1O`
Given back: TRUE

Asked: Also check `Cc1ccc(C(=O)Nc2ccc3nc(C)sc3c2)s1`
Given back: TRUE

Asked: Also check `COc1ccccc1NC(=O)c1ccc(C)s1`
Given back: FALSE

Asked: Also check `Cc1cc(Cl)c(OCCCCN2CCOCC2)c(Br)c1`
Given back: FALSE

Asked: Also check N#CC1(C#N)CC(C=O)=C(N)C1(C#N)CC(=O)C12CC3CC(CC(C3)C1)C2 (stereo unspecified)
Given back: FALSE

Asked: Also check `COc1cc(/C=C(\NC(C)=O)C(=O)Nc2cccc(O)c2)ccc1OC(C)=O`
Given back: FALSE

Asked: Also check `O=C1Cc2ccccc2C(=O)N1OCc1ccc(Cl)cc1Cl`
Given back: FALSE

Asked: Also check C1CCC(C(CC2CCCCN2)C2CCCCC2)CC1 (stereo unspecified)
Given back: TRUE

Asked: Also check `CS/C(=N\S(=O)(=O)c1cccs1)Nc1ccc(Br)cc1F`
Given back: TRUE

Asked: Also check `O=[N+]([O-])/C(C(=C(Cl)Cl)N1CCN(Cc2ccccc2)CC1)=C1\NCCN1Cc1ccc(Cl)nc1`
Given back: FALSE
